- Test system: Bladder carcinoma 5637 cells
- assay_summary: Cytotoxicity counterscreen, CellTiter Glo, 72 hr
- Type: cell-based, human
pIC50 values, listed per item
Field pIC50 (float): negative decimal logarithm of the concentration in molar.

Examples with answers:
Cc1ccc(-c2cc(NC(=O)c3ccc(Br)s3)c(C(=O)O)s2)cc1    4.19
O=C(O)c1sc(-c2ccc(OCCCC(F)(F)F)cc2)cc1NC(=O)c1c(F)cccc1F    3.62
CC(C)(C)c1ccc(-c2cc(NC(=O)c3cc4ccccc4o3)c(C(=O)O)s2)cc1    4.46
CCCc1ccc(-c2cc(NC(=O)c3c(F)cccc3F)c(C(=O)O)s2)cc1    4.26
O=C(O)c1sc(-c2ccc(OCC(F)(F)F)cc2)cc1NC(=O)c1c(F)cccc1F    4.12
O=C(O)c1sc(-c2ccc(OCCC(F)(F)F)cc2)cc1NC(=O)c1c(F)cc(F)cc1F    4.20

For the molecule `COc1ccc(-c2cc(NC(=O)c3cc4ccccc4o3)c(C(=O)O)s2)cc1` , give its reported pIC50.
4.35

For the molecule `O=C(O)c1sc(-c2ccccc2)cc1NC(=O)C1CCCCC1` , give its reported pIC50.
3.94

====

IC50 at 72 h values, listed per item
- assay_summary: Cytotoxicity counterscreen, CellTiter Glo, 72 hr
- Format: cell-based, human
- condition_parameters: human, bladder carcinoma 5637 cells (ATCC HTB-9), five probe analogues
Record the value in µM, omitting the unit from your answer.

Examples with answers:
O=C(O)c1sc(-c2ccc(OC(F)(F)F)cc2)cc1NC(=O)c1c(F)cccc1F    51
O=C(Nc1cc(-c2ccc(C(F)(F)F)cc2)sc1C(=O)O)c1cc2ccccc2o1    72.1
COc1ccc(-c2cc(NC(=O)c3ccc(Br)o3)c(C(=O)O)s2)cc1    50.5

Next, consider the following compound.
For the compound `CCOc1ccc(-c2cc(NC(=O)c3ccc(Br)s3)c(C(=O)O)s2)cc1` , give its reported IC50 at 72 h.
49.7

====

- System: Bladder carcinoma 5637 cells
- assay_summary: Cytotoxicity counterscreen, CellTiter Glo, 72 hr
- Assay type: cell-based, human
observable: pIC50
Field pIC50 (float): negative decimal logarithm of the concentration in molar.

Examples with answers:
O=C(Nc1cc(-c2ccccc2)sc1C(=O)O)c1cccs1 [compound 9945365]    4.21
Cc1ccc(C(=O)Nc2cc(-c3ccccc3)sc2C(=O)O)s1 [compound 17546665]    4.20
CC(C)c1ccc(-c2cc(NC(=O)c3cccc(F)c3)c(C(=O)O)s2)cc1 [compound 53470444]    4.43
COc1ccc(-c2cc(NC(=O)c3ccc(Br)o3)c(C(=O)O)s2)cc1 [compound 53470446]    4.30
O=C(Nc1cc(-c2ccc(C(F)(F)F)cc2)sc1C(=O)O)c1cccc(F)c1 [compound 53470418]    4.45
O=C(Nc1cc(-c2ccc(C(F)(F)F)cc2)sc1C(=O)O)c1ccc(Br)o1 [compound 53470416]    4.32
CCOc1ccc(-c2cc(NC(=O)c3ccc(OC)c(OC)c3)c(C(=O)O)s2)cc1 [compound 23602082]    4.14
O=C(Nc1cc(-c2ccc(OC(F)(F)F)cc2)sc1C(=O)O)c1cc2ccccc2o1 [compound 53495058]    4.39

// fetch pIC50 for CC(C)c1ccc(-c2cc(NC(=O)c3cc4ccccc4o3)c(C(=O)O)s2)cc1 [compound 53470434] ; system: Bladder carcinoma 5637 cells
4.33

// fetch pIC50 for CCCCOc1ccc(-c2cc(NC(=O)c3c(F)cccc3F)c(C(=O)O)s2)cc1 [compound 56643007] ; system: Bladder carcinoma 5637 cells
4.37

// fetch pIC50 for O=C(Nc1cc(-c2ccc(OC(F)(F)F)cc2)sc1C(=O)O)c1cccc(F)c1 [compound 53495056] ; system: Bladder carcinoma 5637 cells
4.28

// fetch pIC50 for CCCCOc1ccc(-c2cc(NC(=O)c3cc(Br)c(Br)o3)c(C(=O)O)s2)cc1 [compound 56643019] ; system: Bladder carcinoma 5637 cells
4.50

// fetch pIC50 for COc1ccc(-c2cc(NC(=O)c3c(F)cccc3F)c(C(=O)O)s2)cc1 [compound 53470430] ; system: Bladder carcinoma 5637 cells
3.62

// fetch pIC50 for O=C(O)c1sc(-c2ccc(C(F)(F)F)cc2)cc1NC(=O)c1c(F)cccc1F [compound 53470440] ; system: Bladder carcinoma 5637 cells
4.35

// fetch pIC50 for CCOc1ccc(-c2cc(NC(=O)c3cccc(F)c3)c(C(=O)O)s2)cc1 [compound 23602076] ; system: Bladder carcinoma 5637 cells
4.21

====

IC50 values, listed per item
- Test system: Bladder carcinoma 5637 cells
- assay_summary: Cytotoxicity counterscreen, CellTiter Glo, 72 hr
- Format: cell-based, human
Record the value in µM, omitting the unit from your answer.

Examples with answers:
O=C(Nc1cc(-c2ccc(OCCC(F)(F)F)cc2)sc1C(=O)O)c1ccc(Br)o1 [CID 56643022]    41.7
Cc1ccc(-c2cc(NC(=O)c3cccc(F)c3)c(C(=O)O)s2)cc1    43.9
O=C(Nc1cc(-c2ccccc2)sc1C(=O)O)c1ccc(Cl)s1    71.5
O=C(Nc1cc(-c2ccc(OCCCC(F)(F)F)cc2)sc1C(=O)O)c1cc(Br)c(Br)o1    251
O=C(Nc1cc(-c2ccc(OCC(F)(F)F)cc2)sc1C(=O)O)c1ccc(Br)o1    50

For the molecule `O=C(O)c1sc(-c2ccc(OCC(F)(F)F)cc2)cc1NC(=O)c1c(F)cc(F)cc1F` , give its reported IC50.
161

====

- Tested on: E. coli K1 strain UTI89
- assay_summary: Secondary assay 2: T7 phage-mediated lysis assay
- Assay type: cell-based, Escherichia coli
- condition_parameters: purchased analogue series, n = 2; read-out: T7 phage IC50
observable: pIC50
Field pIC50 (float): negative decimal logarithm of the concentration in molar.

Examples with answers:
O=C(Nc1cc(-c2ccccc2)sc1C(=O)O)c1cc2ccccc2o1    5.17
O=C(Nc1cc(-c2ccccc2)sc1C(=O)O)c1cccc(Cl)c1    4.46
O=C(Nc1cc(-c2ccccc2)sc1C(=O)O)c1cccs1    5.16
O=C(O)c1sc(-c2ccccc2)cc1NC(=O)C1CCCC1    4.25
Cc1c(C(=O)Nc2cc(-c3ccccc3)sc2C(=O)O)oc2ccccc12    4.48
Cc1ccc(C(=O)Nc2cc(-c3ccccc3)sc2C(=O)O)s1    4.53
O=C(O)c1sc(-c2ccccc2)cc1NC(=O)C1CCCCC1    4.19
O=C(Nc1cc(-c2ccccc2)sc1C(=O)O)c1ccc(Cl)s1    4.82

For the molecule `CCOc1ccc(-c2cc(NC(=O)c3ccc(OC)c(OC)c3)c(C(=O)O)s2)cc1` , give its reported pIC50.
5.10

====

- assay_summary: PAMPA permeability
- Assay type: in vitro ADME
- condition_parameters: Donor pH 5.0, Acceptor pH 7.4, RT, read-out: PAMPA Pe
observable: Papp (×10⁻⁶ cm/s)
Record the value in ×10⁻⁶ cm/s, omitting the unit from your answer.

For the compound CCOc1ccc(-c2cc(NC(=O)c3c(F)cccc3F)c(C(=O)O)s2)cc1 [ML317] , give its reported Papp.
14

====

- assay_summary: in vitro
- Assay type: cell-based
- condition_parameters: human
observable: CC50 (µM)
Record the value in µM, omitting the unit from your answer.

For the compound `CCOc1ccc(-c2cc(NC(=O)c3c(F)cccc3F)c(C(=O)O)s2)cc1` , give its reported CC50.
26

====

- assay_summary: Cytotoxicity counterscreen, CellTiter Glo, 72 hr
- Type: cell-based, human
- condition_parameters: human, bladder carcinoma 5637 cells (ATCC HTB-9), purchased analogue series, n = 2
observable: IC50 at 72 h (µM)
Record the value in µM, omitting the unit from your answer.

For the molecule CCOc1ccc(-c2cc(NC(=O)c3c(F)cccc3F)c(C(=O)O)s2)cc1 [ML317] , give its reported IC50 at 72 h.
47.2

====

- Test system: E. coli K1 strain UTI89
- assay_summary: microbe, parasite or virus in culture
- condition_parameters: Escherichia coli, read-out: K1 phage IC50, purchased analogue series, n = 3
observable: IC50

For the compound `CCOc1ccc(-c2cc(NC(=O)c3c(F)cccc3F)c(C(=O)O)s2)cc1` , give its reported IC50.
4.5 µM

====

- Test system: E. coli K1 strain UTI89
- assay_summary: microbe, parasite or virus in culture
- condition_parameters: read-out: K1 phage IC50; second round of synthetic analogues, n = 3
observable: log10 IC50 (log10 of the value in µM)
Log scale reminder: IC50 in µM, then log10 taken.

O=C(O)c1sc(-c2ccc(OCCCC(F)(F)F)cc2)cc1NC(=O)c1c(F)cccc1F    1.01

For the compound `CCOc1ccc(-c2cc(NC(=O)c3c(F)cccc3C(F)(F)F)c(C(=O)O)s2)cc1` , give its reported log10 IC50.
1.72

For the compound `CCOc1ccc(-c2cc(NC(=O)c3c(F)cc(F)cc3F)c(C(=O)O)s2)cc1` , give its reported log10 IC50.
1.30

For the compound `O=C(Nc1cc(-c2ccc(OCC(F)(F)F)cc2)sc1C(=O)O)c1ccc(Br)o1` , give its reported log10 IC50.
0.69

For the compound `O=C(O)c1sc(-c2ccc(OCCC(F)(F)F)cc2)cc1NC(=O)c1c(F)cccc1F` , give its reported log10 IC50.
-0.08

For the compound `CCCc1ccc(-c2cc(NC(=O)c3cc(Br)c(Br)o3)c(C(=O)O)s2)cc1` , give its reported log10 IC50.
0.83

For the compound `CCCc1ccc(-c2cc(NC(=O)c3ccc(Br)o3)c(C(=O)O)s2)cc1` , give its reported log10 IC50.
0.16
